# credit: ChEMBL document CHEMBL1201862

# System: UACC-257
# assay-notes: NCI tumour cell line growth inhibition, 48 h
Activity calls are given as the source filed them. Rule as the data show it: active = GI50 up to about 1.1 µM and inactive = higher. Non-standard residues stand in square brackets, D forms with d. Residues, ends and D or L forms follow the SMILES beside them. ξ: configuration not given here. *: point of attachment. dThr(3ξ) = CC(O)[C@@H](N)C(=O)O; dNMeL = CN[C@H](CC(C)C)C(=O)O; OBn = c1ccc(CO*)cc1; ξLac = CC(O)C(=O)O
GI50 by entry:

# annotated cases, reported GI50 shown
{"compound": "Cn1c(=O)c2[nH]c(C3CC(=O)CC(c4nc5c([nH]4)c(=O)n(C)c(=O)n5C)N3)nc2n(C)c1=O (centres undefined)", "measured-on": "UACC-257", "GI50": "> 100 µM (inactive)"}
{"compound": "O=[N+]([O-])/C(C(Cl)=C(Cl)Cl)=C1/OCCS1", "measured-on": "UACC-257", "GI50": "27.7 µM (inactive)"}
{"compound": "CCOC(OCC)c1ccc(/C=C/c2cc(OC)c(OC)c(OC)c2)cc1", "measured-on": "UACC-257", "GI50": "20.2 µM (inactive)"}
{"compound": "CS/C(C#N)=C(\\C#N)SC", "measured-on": "UACC-257", "GI50": "10.9 µM (inactive)"}
{"compound": "CC(=O)Nc1cc2cc(N)ccc2oc1=O", "measured-on": "UACC-257", "GI50": "> 100 µM (inactive)"}
{"compound": "CCOC(=O)C1(F)S(=O)(=O)OCCOS1(=O)=O", "measured-on": "UACC-257", "GI50": "> 100 µM (inactive)"}

Asked: Fill in the blank: the reported GI50 of Cc1ccc(S(=O)(=O)OI(O)CC(F)(F)F)cc1 is ____.
Given back: > 100 µM (inactive)

Asked: Fill in the blank: the reported GI50 of O=C(/C=C/c1ccccc1)CCN1CCN(CCC(=O)/C=C/c2ccccc2)CC1 is ____.
Given back: 11.5 µM (inactive)

Asked: Fill in the blank: the reported GI50 of COC(=O)[C@]12CCC(C)(C)C[C@H]1C1=CC[C@@H]3[C@@]4(C)CC[C@H](OC5OC(CO)C(O)C(O)C5OC5OC(CO)C(O)C(O)C5O)C(C)(C)[C@@H]4CC[C@@]3(C)[C@]1(C)CC2 (some centres undefined) is ____.
Given back: 7.85 µM (inactive)

Asked: Fill in the blank: the reported GI50 of CC1=N/C(=C\c2ccc(/C=C3/N=C(C)OC3=O)cc2)C(=O)O1 is ____.
Given back: > 100 µM (inactive)

Asked: Fill in the blank: the reported GI50 of CN(C)c1n/c(=N/Cc2ccccc2)ss1 is ____.
Given back: > 10 µM (inactive)

Asked: Fill in the blank: the reported GI50 of Cc1cc2nc(O)c(C(C)C(=O)c3ccc(Cl)cc3)nc2cc1C (centres undefined) is ____.
Given back: 16.6 µM (inactive)

Asked: Fill in the blank: the reported GI50 of CN(C)CC1CC/C(=C\c2ccc3c(c2)OCO3)C1=O (centres undefined) is ____.
Given back: 8.97 µM (inactive)

Asked: Fill in the blank: the reported GI50 of Cc1cc(C)nc(NS(=O)(=O)c2ccc(NC(=O)c3ccc(Cl)c4c(Nc5ccc(S(=O)(=O)N=C(N)N)cc5)c5ccccc5nc34)cc2)n1 is ____.
Given back: 51.8 µM (inactive)

Asked: Fill in the blank: the reported GI50 of C[C@@H](CC(=O)O)OC1OC(COC(=O)C(C)(C)C)C(OC(=O)C(C)(C)C)C(OC(=O)C(C)(C)C)C1OC(=O)C(C)(C)C (some centres undefined) is ____.
Given back: > 100 µM (inactive)

Asked: Fill in the blank: the reported GI50 of CC(=O)OC(C)[C@@H](NC(=O)[C@@H](CC(C)C)N(C)C(=O)[C@@H]1CCCN1C(=O)C(C)O)C(=O)OCc1ccccc1 (some centres undefined) (H-[ξLac]P[dNMeL][dThr(3ξ)](Ac)-OBn) is ____.
Given back: > 100 µM (inactive)

Asked: Fill in the blank: the reported GI50 of CC(=O)OCC1OC(N2C(C)=C(C(C)=O)C(c3ccco3)C(C#N)=C2S)C(OC(C)=O)C(OC(C)=O)C1OC(C)=O (centres undefined) is ____.
Given back: > 100 µM (inactive)

Asked: Fill in the blank: the reported GI50 of COc1ccc(N(CC(=O)O)N=O)cc1 is ____.
Given back: > 100 µM (inactive)

Asked: Fill in the blank: the reported GI50 of O=C1NCCCNCCCNCCCNC(=O)c2cccc1n2 is ____.
Given back: > 100 µM (inactive)
